target: Recombinant STAT6 protein (STAT6 (W123-T658)) (Homo sapiens); construct: Recombinant STAT6 protein (STAT6 (W123-T658)); experiment: STAT6 Fluorescence Polarization (FP) Assay; assay type: binding; conditions: STAT6 (W123-T658) 250 nM, probe 5-FAM-Ap[…]-NH2 2 nM, 45-minute incubation; read-out: STAT6 (FP assay IC50 class)
Metric name: IC50

Use these answered entries as a reference point.
Compound | IC50
Cc1nnc([C@H]2[C@H](c3ccccc3)CN2C(=O)[C@@H]2CC[C@@H]3CCC[C@H](NC(=O)c4cc5cc(C(F)P(=O)(O)O)ccc5s4)C(=O)N32)o1 (stereo partly drawn) [Compound 673] | 3 to 30 µM
N#C[C@@H]1CN(C(=O)[C@@H]2CCC[C@@H]3CCC[C@H](NC(=O)c4cc5cc(C(F)P(=O)(O)O)ccc5s4)C(=O)N32)C[C@H]1c1ccccc1 (relative stereo) [Compound 551] | ≤ 0.3 µM

Now let's try a different one.
Specify IC50 for Cc1ccncc1C1CN(C(=O)[C@@H]2CC[C@@H]3C[C@H](C)C[C@H](NC(=O)c4cc5cc([C@@H](F)P(=O)(O)O)ccc5s4)C(=O)N32)C1 (single isomer, unassigned) [Compound 753] , system Recombinant STAT6 protein (STAT6 (W123-T658)) (Homo sapiens).
3 to 30 µM

---

# Lookup of reported IC50 keyed by entry
biological target: pY705-STAT3 in PBMC (Homo sapiens, UniProt P40763); construct: Cryopreserved Peripheral Blood Mononuclear Cells (PBMC) are from AllCells; host or cells: cryopreserved PBMC; test: MSD-pSTAT-PBMC Assay (pSTAT3, IL-6 stimulated); type: cell-based; settings: PBMC, compound 3 hrs, then 10 ng/mL IL-6 for 10 min; Table 115; read-out: STAT3
Sequence (P40763 whole entry): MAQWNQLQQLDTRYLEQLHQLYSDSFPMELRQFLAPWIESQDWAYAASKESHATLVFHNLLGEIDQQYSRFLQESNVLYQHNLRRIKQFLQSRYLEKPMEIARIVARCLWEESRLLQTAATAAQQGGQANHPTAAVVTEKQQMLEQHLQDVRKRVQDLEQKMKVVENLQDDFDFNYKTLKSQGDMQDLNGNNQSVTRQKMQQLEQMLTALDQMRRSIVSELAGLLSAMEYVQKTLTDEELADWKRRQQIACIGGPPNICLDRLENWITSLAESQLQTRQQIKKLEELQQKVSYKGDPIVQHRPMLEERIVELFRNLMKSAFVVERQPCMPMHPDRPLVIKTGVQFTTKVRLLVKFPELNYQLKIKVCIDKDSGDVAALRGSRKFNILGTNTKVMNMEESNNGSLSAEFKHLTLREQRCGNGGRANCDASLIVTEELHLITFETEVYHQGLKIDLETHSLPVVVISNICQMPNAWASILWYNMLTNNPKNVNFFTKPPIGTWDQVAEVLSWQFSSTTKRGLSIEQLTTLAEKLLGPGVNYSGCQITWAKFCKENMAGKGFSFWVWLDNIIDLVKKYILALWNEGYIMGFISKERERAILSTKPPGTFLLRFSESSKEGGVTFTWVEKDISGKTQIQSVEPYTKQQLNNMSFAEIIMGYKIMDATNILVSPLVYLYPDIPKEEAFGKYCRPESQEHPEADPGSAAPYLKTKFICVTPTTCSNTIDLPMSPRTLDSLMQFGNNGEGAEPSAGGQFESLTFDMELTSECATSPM

Molecule | Metric name | Recorded value
CCCOC(=O)[C@H](C)NP(=O)(Cc1ccc2sc(C(=O)N[C@H]3CC(C)C[C@H]4CC[C@@H](C(=O)N5CC(c6cnccc6C)C5)N4C3=O)cc2c1)Oc1ccccc1 (some centres unmarked) | IC50 | < 0.1 µM
CC(C)CC(=O)SCCOP(=O)(OCOC(=O)OC1CCOCC1)C(F)(F)c1ccc2sc(C(=O)N[C@H]3CCC[C@H]4CC[C@@H](C(=O)N5CC(c6ncccn6)C5)N4C3=O)cc2c1 (some centres unmarked) | IC50 | < 0.1 µM
CC(C)OC(=O)[C@H](C)NP(=O)(Oc1ccccc1)C(F)(F)c1ccc2sc(C(=O)N[C@H]3CCC[C@H]4CC[C@@H](C(=O)N5CC(c6cccnc6)C5)N4C3=O)cc2c1 (some centres unmarked) | IC50 | > 3 µM
CCCOC(=O)[C@H](C)NP(=O)(Oc1ccccc1)C(F)c1ccc2sc(C(=O)N[C@H]3CCC[C@H]4CC[C@@H](C(=O)N5CC(c6cc(F)ccc6OC)C5)N4C3=O)cc2c1 (some centres unmarked) | IC50 | > 3 µM

Okay, now this molecule:
Give the value of IC50 reported for the following: CCCOC(=O)[C@H](C)NP(=O)(Cc1ccc2sc(C(=O)N[C@H]3CCC[C@H]4CC[C@@H](C(=O)N5CC(c6c(F)ccnc6OC)C5)N4C3=O)cc2c1)Oc1ccccc1 (some centres unmarked)
> 3 µM

---

Biological target: Recombinant STAT6 protein (STAT6 (W123-T658)) (Homo sapiens)
Construct: Recombinant STAT6 protein (STAT6 (W123-T658))
Sequence (P42226 123-658): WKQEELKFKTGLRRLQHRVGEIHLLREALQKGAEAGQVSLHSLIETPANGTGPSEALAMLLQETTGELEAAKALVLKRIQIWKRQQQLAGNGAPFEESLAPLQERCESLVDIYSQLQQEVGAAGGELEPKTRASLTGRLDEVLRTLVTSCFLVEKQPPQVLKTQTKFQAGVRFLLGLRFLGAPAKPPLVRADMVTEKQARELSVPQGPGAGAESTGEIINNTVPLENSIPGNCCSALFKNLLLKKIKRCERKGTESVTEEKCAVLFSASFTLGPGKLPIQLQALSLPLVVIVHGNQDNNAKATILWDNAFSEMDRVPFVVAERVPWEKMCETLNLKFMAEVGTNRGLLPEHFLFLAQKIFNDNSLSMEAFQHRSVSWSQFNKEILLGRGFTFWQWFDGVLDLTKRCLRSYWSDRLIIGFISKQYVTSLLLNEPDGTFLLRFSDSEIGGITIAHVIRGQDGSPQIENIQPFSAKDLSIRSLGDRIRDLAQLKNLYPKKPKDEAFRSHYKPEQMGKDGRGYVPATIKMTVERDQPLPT
Experiment: STAT6 Fluorescence Polarization (FP) Assay
Type: binding
Conditions: STAT6 250 nM, probe 5-FAM-Ap[…]-NH2 2 nM, 45-minute incubation; read-out: STAT6 (FP assay IC50)
Metric name: IC50

Compound | IC50
Cc1[nH]nc2ccc(NC(=O)[C@@H]3CC[C@@H]4CCCC[C@H](NC(=O)c5cc6cc(C(F)(F)P(=O)(O)O)ccc6s5)C(=O)N43)cc12 | 0.3 to 3 µM
O=C(N[C@H]1CCCC[C@H]2CC[C@@H](C(=O)NCc3cc[nH]c(=O)c3)N2C1=O)c1cc2cc(C(F)(F)P(=O)(O)O)ccc2s1 | 3 to 30 µM
O=C(N[C@H]1CC[C@H](N2CCC2)C[C@H]2CC[C@@H](C(=O)N3CC(C(=O)N4CCOCC4)C3)N2C1=O)c1cc2cc(C(F)(F)P(=O)(O)O)ccc2s1 | 3 to 30 µM
O=C(N[C@H]1CC2(CC[C@H]3CC[C@@H](C(=O)N4CC(C(=O)N5CCOCC5)C4)N3C1=O)CC2)c1cc2cc(C(F)(F)P(=O)(O)O)ccc2s1 | 3 to 30 µM
COc1ccc(N(C)C(=O)[C@@H]2CC[C@@H]3CCCC[C@H](NC(=O)c4cc5cc(C(F)(F)P(=O)(O)O)ccc5s4)C(=O)N32)cn1 | 0.3 to 3 µM
C[C@@H]1[C@@H](n2ccnc2)CN1C(=O)[C@@H]1CC[C@@H]2CCC[C@H](NC(=O)c3cc4cc(C(F)(F)P(=O)(O)O)ccc4s3)C(=O)N21 | 0.3 to 3 µM

Find the measured IC50 of CCO[C@@H]1CC[C@H]2CC[C@@H](C(=O)N3CC(C(=O)N4CCOCC4)C3)N2C(=O)[C@@H](NC(=O)c2cc3cc(C(F)(F)P(=O)(O)O)ccc3s2)C1 and report it.
3 to 30 µM

Supply IC50 value. Item: O=C(N[C@H]1CCCC[C@H]2CC[C@@H](C(=O)N3CC(C4CCOCC4)C3)N2C1=O)c1cc2cc(C(F)(F)P(=O)(O)O)ccc2s1 [Compound 118A]
3 to 30 µM

Dear colleague, please send me the reported IC50 for Cc1cnn(C2CN(C(=O)[C@@H]3CC[C@@H]4CCCC[C@H](NC(=O)c5cc6cc(C(F)(F)P(=O)(O)O)ccc6s5)C(=O)N43)C2)c1 when you can.
3 to 30 µM

For the compound O=C(N[C@H]1CCCC[C@H]2CC[C@@H](C(=O)NCc3n[nH]c4ncccc34)N2C1=O)c1cc2cc(C(F)(F)P(=O)(O)O)ccc2s1 , give its reported IC50.
0.3 to 3 µM

Determine from records and report IC50 for C[C@]1(O)CC[C@H](NC(=O)c2cc3cc(C(F)(F)P(=O)(O)O)ccc3s2)C(=O)N2[C@H](CC[C@H]2C(=O)N2CC(C(=O)N3CCOCC3)C2)C1
3 to 30 µM

---

Form field: IC50 (one value per entry).
Target: Recombinant STAT3 protein (STAT3 (G127-I722)) (Homo sapiens)
Construct: Recombinant STAT3 protein (STAT3 (G127-I722))
Assay: STAT3 Fluorescence Polarization (FP) Assay
Type: binding
Settings: STAT3 (G127-I722) 25 nM, probe 5-FAM-GpYLPQTV-NH2 2 nM, 45-minute incubation; read-out: STAT3 (FP assay IC50 class)
Protocol: STAT3 Fluorescence Polarization (FP) Assay An FP assay was developed to determine IC50 values for test substances. […] Reaction components were mixed, and FP was measured after 45-minute incubation at room temperature using a Tecan Spark multimode plate reader. FP signal (mP) was plotted against the log concentration of the test substances and IC50 values were calculated by nonlinear regression analysis using GraphPad Prism software. […]

Some solved cases for reference:
Structure as smiles | Recorded value
C[C@H]1C[C@H]2CC[C@@H](C(=O)N3CC(c4cnccc4N(C)C)C3)N2C(=O)[C@@H](NC(=O)c2cc3cc(CP(=O)(O)O)ccc3s2)C1 | < 100 nM
CO[C@H]1CCN(c2ccncc2C2CN(C(=O)[C@@H]3CC[C@@H]4CCC[C@H](NC(=O)c5cc6cc(CP(=O)(O)O)ccc6s5)C(=O)N43)C2)C1 | < 100 nM

Item O=C(N[C@H]1CCC[C@H]2CC[C@@H](C(=O)N3CC(c4cnccc4-n4ccnc4)C3)N2C1=O)c1cc2cc([C@@H](F)P(=O)(O)O)ccc2s1 : provide IC50
1000 to 10000 nM
